# System: NCI-H1048 cells
# method: MTT proliferation assay, NCI-H1048;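 further: Dose-response in 96-well plates over 8 or 10 concentration points, with exposure spanning 3-4 cell doublings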
# Assay type: cell-based
# settings: 5 days compound exposure, 1:3 serial dilution starting at 10 μM
*1 amine or outer side, *2 acyl side, *3 side chain or, on linkers, in order; H or OH if unused. Where a SMILES comes first, the peptide text is derived from it. Bridges are numbered along the chain shown (N, C = ends). [ ]: non-standard residue; d: D form. The star is where a group is joined. NMehhhLys(Me) = CN([C@@H](CCCCCCCN(C)[*:3])C(=O)[*:2])[*:1]; X194 = CN([C@@H](Cc1cc(Cl)ccc1-c1ccnnc1)C(=O)[*:2])[*:1]; NMe(hhhLys) = CN([C@@H](CCCCCCCN[*:3])C(=O)[*:2])[*:1]; cBuCO(3,3-F2-1-CF3) = O=C(C1(C(F)(F)F)CC(F)(F)C1)*; X133 = Cc1ncc(Cl)cc1C[C@@H](C(=O)[*:2])N(C)[*:1]; Pro(trans-4-F) = O=C(O)[C@@H]1C[C@@H](F)CN1; Gly(cPr) = N[C@H](C(=O)O)C1CC1
Documented GI50 across a set of compounds
measured.metric: GI50 (nM)

compound	measured.metric	observed
Cc1ncc(Cl)cc1C[C@H]1C(=O)NCCCCCCC[C@H](N(C)C(=O)[C@@H](NC(=O)[C@@H]2C[C@@H](F)CN2C(=O)C2(C(F)(F)F)CC(F)(F)C2)C2CC2)C(=O)N[C@@H](CC(C)C)C(=O)N1C [Example 331] ({cBuCO(3,3-F2-1-CF3)}-[Pro(trans-4-F)][Gly(cPr)][NMe(hhhLys)]L[X133]; lactam 3-C)	GI50	60
CC(C)C[C@@H]1NC(=O)[C@@H](N(C)C(=O)[C@@H](NC(=O)[C@@H]2C[C@@H](F)CN2C(=O)C2(C(F)(F)F)CC(F)(F)C2)C2CC2)CCCCCCCN(C)C(=O)[C@H](Cc2cc(Cl)ccc2-c2ccnnc2)N(C)C1=O [Example 292] ({cBuCO(3,3-F2-1-CF3)}-[Pro(trans-4-F)][Gly(cPr)][NMehhhLys(Me)]L[X194]; lactam 3-C)	GI50	70

###

The entries below come with measured IC50 values attached.
# tested.target: CyclinE1/CDK2 (Homo sapiens, UniProt P24864)
# Construct: purchased Eurofins, discovery 14-475
# method: Fluorescence Polarization (FP) competitive binding assay, Cyclin E1/Cdk2
# settings: 10 nM Cyclin E1/Cdk2, 2 nM FAM probe; average of 2-3 independent experiments; read-out: Cyclin E FP IC50
*1 amine or outer side, *2 acyl side, *3 side chain or, on linkers, in order; H or OH if unused. Where a SMILES comes first, the peptide text is derived from it. Bridges are numbered along the chain shown (N, C = ends). [ ]: non-standard residue; d: D form. The star is where a group is joined. NMePhe(2-(4-MorPh),5-Cl) = CN[C@@H](Cc1cc(Cl)ccc1-c1ccc(N2CCOCC2)cc1)C(=O)O; NMehhhLys(Me) = CN([C@@H](CCCCCCCN(C)[*:3])C(=O)[*:2])[*:1]; cBuCO(3,3-F2-1-CF3) = O=C(C1(C(F)(F)F)CC(F)(F)C1)*; X25 = CCOc1ncc(Cl)cc1C[C@@H](C(=O)[*:2])N(C)[*:1]; Pro(trans-4-F) = O=C(O)[C@@H]1C[C@@H](F)CN1; Pivaloyl(3,3,3-F3) = CC(C)(C(=O)*)C(F)(F)F; Nva(5-OH) = N[C@@H](CCCO)C(=O)O; Gly(cPr) = N[C@H](C(=O)O)C1CC1
measured.metric: IC50 (nM)

molecule	observed
CCN(C(=O)[C@@H](NC(=O)[C@@H]1C[C@@H](F)CN1C(=O)C1(C(F)(F)F)CC(F)(F)C1)C1CC1)[C@H]1CCCCCCCN(C)C(=O)[C@H](Cc2cc(Cl)ccc2-c2ccc(N3CCN(C)CC3)cc2)N(C)C(=O)[C@H](CC(C)C)NC1=O	3930
CCOc1ncc(Cl)cc1C[C@H]1C(=O)N(C)CCCCCCC[C@H](N(C)C(=O)[C@@H](NC(=O)[C@@H]2C[C@@H](F)CN2C(=O)C(C)(C)C(F)(F)F)C2CC2)C(=O)N[C@@H](CC(C)C)C(=O)N1C [Example 269] ({Pivaloyl(3,3,3-F3)}-[Pro(trans-4-F)][Gly(cPr)][NMehhhLys(Me)]L[X25]; lactam 3-C)	100
CC(C)C[C@@H]1NC(=O)[C@@H](N(C)C(=O)[C@H](CCCO)NC(=O)[C@@H]2C[C@@H](F)CN2C(=O)C2(C(F)(F)F)CC(F)(F)C2)CCCCCCCN(C)C(=O)[C@H](Cc2cc(Cl)ccc2-c2ccc(N3CCOCC3)cc2)N(C)C1=O [Example 421] ({cBuCO(3,3-F2-1-CF3)}-[Pro(trans-4-F)][Nva(5-OH)][NMehhhLys(Me)]L[NMePhe(2-(4-MorPh),5-Cl)]; lactam 3-C)	510

###

# tested.target: CyclinE1/CDK2 (Homo sapiens, UniProt P24864)
# Construct: purchased Eurofins, discovery 14-475
# method: Fluorescence Polarization (FP) competitive binding assay, Cyclin E1/Cdk2;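 further: readings taken after two-hour equilibration at room temperature in HEPES buffer with NaCl, DTT, NP-40 and BSA, IC50 fitted from eight-concentration serial dilution series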
# settings: 10 nM Cyclin E1/Cdk2, 2 nM FAM probe; average of 2-3 independent experiments; read-out: Cyclin E FP IC50
pIC50: −log10 of the molar value. *1 amine or outer side, *2 acyl side, *3 side chain or, on linkers, in order; H or OH if unused. Where a SMILES comes first, the peptide text is derived from it. Bridges are numbered along the chain shown (N, C = ends). [ ]: non-standard residue; d: D form. The star is where a group is joined. NMehhhLys(Me) = CN([C@@H](CCCCCCCN(C)[*:3])C(=O)[*:2])[*:1]; X22 = CN([C@@H](Cc1cc(Cl)ccc1-c1cnn(C)c1)C(=O)[*:2])[*:1]; Cyclobutanecarbonyl(1-CF3) = O=C(C1(C(F)(F)F)CCC1)*; Pro(trans-4-F) = O=C(O)[C@@H]1C[C@@H](F)CN1; Gly(cPr) = N[C@H](C(=O)O)C1CC1
# Lookup of reported pIC50 keyed by entry

molecule	pIC50
CC(C)C[C@@H]1NC(=O)[C@@H](N(C)C(=O)[C@@H](NC(=O)[C@@H]2C[C@@H](F)CN2C(=O)C2(C(F)(F)F)CCC2)C2CC2)CC=CCCCCNC(=O)[C@H](Cc2cc(F)cnc2OC2CC2)N(C)C1=O	6.35
CC(C)C[C@@H]1NC(=O)[C@@H](N(C)C(=O)[C@@H](NC(=O)[C@@H]2C[C@@H](F)CN2C(=O)C2(C(F)(F)F)CCC2)C2CC2)CCCCCCCN(C)C(=O)[C@H](Cc2cc(Cl)ccc2-c2cnn(C)c2)N(C)C1=O [Example 185] ({Cyclobutanecarbonyl(1-CF3)}-[Pro(trans-4-F)][Gly(cPr)][NMehhhLys(Me)]L[X22]; lactam 3-C)	6.96

###

# tested.target: CyclinB1/CDK1 (Homo sapiens)
# Construct: purchased Eurofins, discovery 14-450
# method: Fluorescence Polarization (FP) competitive binding assay, Cyclin B1/Cdk1;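 further: fluorescence polarization read after equilibration at room temperature, with IC50 taken from serially diluted dose-response curves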
# settings: read-out: Cyclin B FP IC50; 10 nM Cyclin B1/Cdk1, 2 nM FAM probe; average of 2-3 independent experiments
pIC50: −log10 of the molar value. *1 amine or outer side, *2 acyl side, *3 side chain or, on linkers, in order; H or OH if unused. Where a SMILES comes first, the peptide text is derived from it. Bridges are numbered along the chain shown (N, C = ends). [ ]: non-standard residue; d: D form. The star is where a group is joined. X209 = CN([C@@H](Cc1cc(Cl)ccc1-c1cnc2nn(C)cc2c1)C(=O)[*:2])[*:1]; X83 = CN([C@@H](Cc1cc(Cl)ccc1-c1cnn2c1COCC2)C(=O)[*:2])[*:1]; NMehhhLys(Me) = CN([C@@H](CCCCCCCN(C)[*:3])C(=O)[*:2])[*:1]; cBuCO(3,3-F2-1-CF3) = O=C(C1(C(F)(F)F)CC(F)(F)C1)*; Pro(trans-4-F) = O=C(O)[C@@H]1C[C@@H](F)CN1; Gly(cPr) = N[C@H](C(=O)O)C1CC1
Reported pIC50 values follow for various compounds

compound	pIC50
CC(C)C[C@@H]1NC(=O)[C@@H](N(C)C(=O)[C@@H](NC(=O)[C@@H]2C[C@@H](F)CN2C(=O)C2(C(F)(F)F)CC(F)(F)C2)C2CC2)CCCCCCCN(C)C(=O)[C@H](Cc2cc(Cl)ccc2-c2cnn3c2COCC3)N(C)C1=O [Example 233] ({cBuCO(3,3-F2-1-CF3)}-[Pro(trans-4-F)][Gly(cPr)][NMehhhLys(Me)]L[X83]; lactam 3-C)	7.70
CC(C)C[C@@H]1NC(=O)[C@@H](N(C)C(=O)[C@@H](NC(=O)[C@@H]2C[C@@H](F)CN2C(=O)C2(C(F)(F)F)CC(F)(F)C2)C2CC2)CCCCCCCN(C)C(=O)[C@H](Cc2cc(Cl)ccc2-c2cnc3nn(C)cc3c2)N(C)C1=O [Example 249] ({cBuCO(3,3-F2-1-CF3)}-[Pro(trans-4-F)][Gly(cPr)][NMehhhLys(Me)]L[X209]; lactam 3-C)	7.70
CCN(C(=O)[C@@H](NC(=O)[C@@H]1C[C@@H](F)CN1C(=O)[C@@]1(C(F)(F)F)CCCCO1)C1CC1)[C@H]1CCCCCCCN(C)C(=O)[C@H](Cc2cc(Cl)cnc2OC2CC2)N(C)C(=O)[C@H](CC(C)C)NC1=O	7.70
